Sourced from patent US20250171534A1

# study.system: T1, human LILRB1 expressed on cells (human, UniProt Q8NHL6 24-650)
# T1 construct: In 293T cells it was expressed from pCMV3-LILRB1-GFP; also called CHO-LILRB1; Jurkat-LILRB1
# T1 sequence (Q8NHL6 other isoform, or with tags, fused parts or gaps limits assumed): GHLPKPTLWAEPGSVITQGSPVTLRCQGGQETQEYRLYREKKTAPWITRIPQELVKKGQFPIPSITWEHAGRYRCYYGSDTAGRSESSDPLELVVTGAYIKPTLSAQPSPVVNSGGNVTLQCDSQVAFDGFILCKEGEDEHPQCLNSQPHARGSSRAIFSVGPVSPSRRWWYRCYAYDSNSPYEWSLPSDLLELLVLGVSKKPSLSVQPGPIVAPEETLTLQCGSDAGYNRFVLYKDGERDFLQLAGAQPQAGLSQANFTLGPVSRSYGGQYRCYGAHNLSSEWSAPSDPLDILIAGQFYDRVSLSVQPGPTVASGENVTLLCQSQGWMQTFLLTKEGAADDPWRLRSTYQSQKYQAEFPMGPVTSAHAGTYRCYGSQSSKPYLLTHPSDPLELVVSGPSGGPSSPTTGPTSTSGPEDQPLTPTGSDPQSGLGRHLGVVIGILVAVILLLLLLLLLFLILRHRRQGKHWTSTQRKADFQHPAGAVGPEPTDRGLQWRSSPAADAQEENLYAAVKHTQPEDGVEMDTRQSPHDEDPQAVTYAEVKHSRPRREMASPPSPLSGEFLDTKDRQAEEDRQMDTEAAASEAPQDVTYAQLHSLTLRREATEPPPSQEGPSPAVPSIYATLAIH
# test.method.notes: flow cytometry on CHO-LILRB1 cells, non-linear fit of the curves of FIG. 26A
// values below are reported EC50
The reply should contain only the number, in µg/mL.

Record excerpt, results attached:
D2M002-002 (antibody, V domains shown, Hit from immunised mice; also called clone #2; anti-LILRB1/2 clone #2) VH: EVQLQQSGPELVKPGASVKMSCKASGYTFTRYVMHWVKQKPGQGLEWIGYINPNNDGTKYNEKFKGKVTLTSDKSSSTAYMELSSLTSEDSAVYYCARGDLEILPYYDHARNAMDYWGQGTSVTVSS VL: DVQMIQSPASLSASVGETVTITCRASENIYSYLAWYQQKQGKSPQLLVYNAKTLAEGVPSRFSGSGSGTQFSLKINSLQPEDFGSYYCQHFWSTPPTFGGGTKLEIK	0.218
D2M002-103HV1 (antibody, V domains shown, Humanized and optimized variant of the D2M002-002 lineage) VH: QVQLVQSGAEVKKPGASVKVSCKASGYTFTRYVMHWVRQAPGQRLEWIGYINPNNEETKYSQKFKGRVTLTRDTSASTAYMELSSLRSEDTAVYYCARADLEILPYYDHARYAMDYWGQGTLVTVSS VL: DIQMTQSPSSVSASVGDRVTITCRASENIYSHLAWYQQKPGKAPKLLVYNAKSLQSGVPSRFSGSGSGTDFTLTISSLQPEDFATYYCQHFWSTPPTFGGGTKVEIK	0.0941

Would you kindly look at the next entry?
Qu. Find the recorded EC50 belonging to D2M002-126 (antibody, V domains shown, Humanized and optimized variant of D2M002-026) VH: QVQLVQSGAEVKKPGASVKVSCKASGYTFTSYWIEWVRQAPGQGLEWIGEILPGDESTNYNAKFKGRVTFTTDTSTSTAYMELRSLRSDDTAVYYCARSGAGGYDSGAFAYWGQGTLVTVSS VL: AIQLTQSPSSLSASVGDRVTITCRASESVDTYGNSFMHWYQQKPGKAPKLLVYRTSNLESGVPSRFSGSGSGTDFTLTISSLQPEDFATYYCQQSNEDPWTFGGGTKVEIK and report it.
Ans. 0.388
